Test system: SN12C renal
assay.overview: NCI tumour cell line growth inhibition, 48 h
quantity.kind: TGI (µM)

molecule	quantity.kind	rel	observed.measurement
COc1cc(Oc2c(O)c(C)c(OC)c(C(C)=O)c2O)c(C(C)=O)c(O)c1C	TGI	>	100
O=C(CC(C(=O)c1cccs1)c1ccsc1)c1ccsc1 (stereo not given)	TGI	>	100
COc1ccc2c(c1)nc(N)c1c3cccnc3cn21	TGI	>	100
CC(=O)C1=C([O-])C(C)OC1=O.CC(=O)C1=C([O-])C(C)OC1=O.[NH-]C1CCCC[C@H]1[NH-].[Pt+4] (stereo not given)	TGI	>	100
CO[C@@H](c1ccccc1)[C@H](O)[C@](O)(c1ccccc1)P(=O)(OC)OC	TGI	>	100
CCCCCCCC(=O)N/N=C/c1ccc(Sc2nccn2C)c([N+](=O)[O-])c1	TGI	=	28.9
COc1ccc2c(C(=O)O)cc3cc(OC)c(OC)cc3c2c1	TGI	>	100
COc1cc(/C=C/C2=NN(c3cccc(S(=O)(=O)O)c3)C3(C2)C(Cl)C(=O)N3c2nc3ccccc3s2)ccc1O (stereo not given)	TGI	=	47.5
C1=NCCOCCN=Cc2ccccc2OCc2cccc(n2)COc2ccccc21	TGI	=	15.2
CCOC(=O)N1CCN(S(=O)(=O)c2oc(-c3ccc(Cl)cc3)nc2C#N)CC1	TGI	=	3.23

###

Tested on: A498 renal
assay.overview: NCI tumour cell line growth inhibition, 48 h
quantity.kind: TGI (µM)

compound	rel	observed.measurement
Clc1ccc2nc(Oc3ccccc3)cnc2c1	>	100
O=C(Cc1ccccc1)N/N=C(\C1=Nc2ccc([N+](=O)[O-])cc2NC1O)C(O)c1ccc([N+](=O)[O-])cc1 (configuration not stated)	>	100
O=C1CCc2cc3c(cc21)CC1(Cc2ccccc2C1)C3	=	66.6
O=c1oc2ccc(Cl)cc2c(=O)n1-c1ccc(I)cc1F	=	0.182
Cc1cc(C2(c3cc(C)c(O)c(C(=O)O)c3)OS(=O)(=O)c3ccccc32)cc(C(=O)O)c1O	>	100
Cc1cccc(C)c1NC(=O)CCCC(=O)C1CCC/C1=N\NC(=O)C(=O)NN (configuration not stated)	>	100
C=CCc1ccc(O)c(-c2cc(C3Oc4c(-c5cc(CC=C)ccc5O)cc(O)cc4[C@@H]3CO)ccc2O)c1 (some centres not stated)	=	61.5
COc1ccc2c(c1)nc(N)c1c3cccnc3cn21	=	3.04
N#Cc1ccc(OCc2ccc3nc(-c4ccccc4)c(Cl)nc3c2)cc1	>	100
CCOC(=O)c1cnn(-c2ccnc3c(C(F)(F)F)cccc23)c1N	>	100
COC(=O)[C@@]12OC[C@]34C([C@@H](O)C1O)[C@@]1(C)CC(=O)C(O)=C(C)C1C[C@H]3OC(=O)[C@H](OC(=O)CC(C)C(F)(F)F)[C@H]42 (some centres not stated)	=	0.121
CCc1cc2c(cc1CCCC(=O)O)CC1(Cc3ccc(C(=O)O)cc3C1)C2 (configuration not stated)	>	100
Nc1nc(OCc2ccccc2)nc2[nH]ncc12	=	26.4
C=C[C@]1(C)C=C2C(=O)[C@@]3(O)OC[C@@]4(CCCC(C)(C)C43O)C2(O)C(O)C1 (some centres not stated)	=	25.6
FC(F)(F)C12C34C=CC5(CCC6(C=CC1(CC3)O6)C52C(F)(F)F)O4 (configuration not stated)	>	100
CC(=O)c1cccc(NCn2nnc3ccccc32)c1	>	100
CN(C)CCNC(=O)c1ccc(Cl)c2c(Nc3ccc(S(N)(=O)=O)cc3)c3ccccc3nc12	=	13.4
C=C(Br)CN(CC(=C)Br)C(C)=O	>	100
COc1cc2c(c(OC)c1OC)C(=O)[C@H]1OC(=O)N[C@@H]21	>	100
Cc1cc(C)c(C)c(-n2[nH]c(=O)n(C)c2=O)c1C	>	100
COc1cc2cc(Oc3ccc(NC(=O)c4ccc(Cl)c(C(F)(F)F)c4)cc3)c(C)nc2cc1OC	=	86.3
O=[N+]([O-])c1ccc(N=NN2CCCC2)cc1	>	100

###

System: HL-60(TB) leukemia
assay.overview: NCI tumour cell line growth inhibition, 48 h
quantity.kind: TGI

compound	observed.measurement
Fc1ccc(Nc2nc(NCCNc3ccnc4cc(Cl)ccc34)nc(N3CCOCC3)n2)cc1	4.89 µM
COc1ccccc1-c1c(C)nn2c(NCc3ccccn3)cc(C)nc12	> 50 µM
O=C(O)CCC1CCc2cccc3occ1c23 (stereo not given)	> 100 µM
CO[C@@H](c1ccccc1)[C@H](O)[C@](O)(c1ccccc1)P(=O)(OC)OC	> 100 µM
C=CC12CN(C)C3C4COC(CC41)C1(C(=O)Nc4ccccc41)C32 (stereo not given)	> 186 µM
COc1ccc2c(c1)C(=O)c1c-2n(CCCN2CCOCC2)c(=O)c2ccccc12	> 100 µM
O=C(Nc1cc(Cl)c(Cl)cc1Cl)C(=O)C(C(=O)c1ccc(Cl)c(Cl)c1)C1OC(=O)c2ccccc21 (stereo not given)	52 µM
CC(C)=CC(=O)CC(=O)C(=O)Nc1ccc(Cl)c(Cl)c1	> 100 µM
C1=NCCOCCN=Cc2ccccc2OCc2cccc(n2)COc2ccccc21	16.3 µM
N#Cc1ccc(OCc2ccc3nc(-c4ccccc4)c(Cl)nc3c2)cc1	> 100 µM

###

// reported GI50 for each item listed
Tested on: SW-620 colon
assay.overview: NCI tumour cell line growth inhibition, 48 h

molecule	GI50
CCOC(=O)N1CCN(S(=O)(=O)c2oc(-c3ccc(Cl)cc3)nc2C#N)CC1	1.69 µM
Clc1ccc2nc(Oc3ccccc3)cnc2c1	> 100 µM
CC1=CC(=O)C(C(C)=Nc2ccccc2Cl)C(=O)O1 (stereo not given)	> 100 µM
CCCCCCCCCCCCC(=O)[O-].CCCCCCCCCCCCC(=O)[O-].CCCCCCCCCCCCC(=O)[O-].CCCCCCCCCCCCC(=O)[O-].[Mo+2].[Mo+2]	15.1 µM
C=C(C)CCC(C)N1CCC(N2CCC(C(=O)NCCc3ccccc3)CC2)CC1 (stereo not given)	24.7 µM

###

Tested on: COLO 205 colon
assay.overview: NCI tumour cell line growth inhibition, 48 h
# key: entry, value: TGI
quantity.kind: TGI

compound	observed.measurement
Cc1cc(N2CCCC2)nc(N(CCCNc2ccnc3cc(Cl)ccc23)Cc2ccc3c(c2)OCO3)n1	3 µM
COC(=O)[C@@]12OC[C@]34C([C@@H](O)C1O)[C@@]1(C)CC(=O)C(O)=C(C)C1C[C@H]3OC(=O)[C@H](OC(=O)CC(C)C(F)(F)F)[C@H]42 (stereo not given in full)	0.415 µM
O=C(Nc1ccc2c(c1)oc(=O)c1ccccc12)C(Cl)Cl	> 100 µM
CC(C)(C)OC(=O)CN1CCNCCN(CC(=O)OC(C)(C)C)CC1	> 100 µM
Fc1ccc(Nc2nccc(-c3c(-c4ccc(C(F)(F)F)cc4)nn4ncccc34)n2)cc1F	> 25 µM
CC1=NN(C(=O)c2ccc(Cl)cc2)C(=O)/C1=C/c1cccc([N+](=O)[O-])c1	> 100 µM
COc1cc2c(c(OC)c1OC)C(=O)[C@H]1OC(=O)N[C@@H]21	> 100 µM
O=C(CC(C(=O)c1cccs1)c1ccsc1)c1ccsc1 (stereo not given)	53.5 µM
O=C(Nc1cc(Cl)c(Cl)cc1Cl)C(=O)C(C(=O)c1ccc(Cl)c(Cl)c1)C1OC(=O)c2ccccc21 (stereo not given)	33.8 µM
COc1ccc(NCC(=O)Nn2c(C)nc3ccc(S(=O)(=O)Nc4ccc(OC)cc4)cc3c2=O)cc1	> 100 µM
CCN1C(=O)N(CC)C2C1NN=c1s/c(=C3\C(=O)N(C)c4ccccc43)c(=O)n12 (stereo not given)	55.1 µM
Cc1cccc(C)c1NC(=O)CCCC(=O)C1CCC/C1=N\NC(=O)C(=O)NN (stereo not given)	> 100 µM
C1=NCCOCCN=Cc2ccccc2OCc2cccc(n2)COc2ccccc21	> 25 µM
NCCCc1ccc2oc3ccccc3c2c1	32.8 µM
CC1CC/C(=C\c2ccc(N(C)C)cc2)C(=O)/C1=C/c1ccc(N(C)C)cc1 (stereo not given)	> 100 µM
CC(=O)O[C@]12CCC[C@H]1C1(O)C(O)CCC[C@H]12 (stereo not given in full)	> 100 µM
C/C=C(/CCCCNCCCC)[Si](C)(C)C	27.9 µM
CCO[C@@H]1C2C=CC(C2)[C@H]1[N+](=O)[O-] (stereo not given in full)	> 100 µM
O=[N+]([O-])c1ccc(N=NN2CCCC2)cc1	> 100 µM
CCc1c[nH]c2ncnc(N3CC[C@@](N)(CNC(=O)c4ccc(F)cc4F)C3)c12	> 100 µM

###

Below, each entry is listed alongside its reported TGI.
Test system: CCRF-CEM leukemia
assay.overview: NCI tumour cell line growth inhibition, 48 h

compound	TGI
CN1C(=O)C(O)CC1c1cccc(F)c1 (centres undefined)	> 100 µM
CSc1c(C(=O)Nc2ccc(Cl)cc2)c(N)[nH]c(=O)c1C#N	> 100 µM
CC1=CCS(=O)(=O)C1C(O)C1=C(C)CCCC1(C)C (centres undefined)	> 100 µM
CC(Oc1ccc(OCC2CCCCC2)cc1)C(=O)N(CCO)CCO (centres undefined)	> 100 µM
CC(C)=CC(=O)CC(=O)C(=O)Nc1ccc(Cl)c(Cl)c1	> 100 µM
CCc1c[nH]c2ncnc(N3CC[C@@](N)(CNC(=O)c4ccc(F)cc4F)C3)c12	> 96.4 µM
Cc1nnc2sc(-c3ccc(-c4ccccc4Cl)o3)nn12	> 100 µM
CC1OC(c2ccccc2)=CC(OCc2ccccc2)[C@H]1OCc1ccccc1 (some centres undefined)	> 10 µM
CC(=O)NC(CCCN(Cc1ccccc1)C(=O)N(CCCl)N=O)C(=O)NCc1ccccc1 (centres undefined)	> 100 µM
CCOC(=O)/C(C#N)=C1\N[C@H](C(=O)OCC)CO1	> 100 µM
COc1ccc2c(C(=O)O)cc3cc(OC)c(OC)cc3c2c1	> 100 µM
O=C(O)c1cc2c(s1)C(=O)c1sccc1C2=O	33.1 µM
COC1CC(n2cnc3c(N)ncnc32)OC1CO (centres undefined)	> 100 µM
O=C(O)C/C(=C\c1ccccc1)C(=O)O	> 100 µM
CCO[C@@H]1C2C=CC(C2)[C@H]1[N+](=O)[O-] (some centres undefined)	> 100 µM
O=C1CC2C(=O)N(Cc3ccccc3)C1C(S(=O)(=O)c1ccccc1)C2S(=O)(=O)c1ccccc1 (centres undefined)	3.46 µM
CN(C)Cc1cc(N=Nc2ccccc2Cl)cc(CN(C)C)c1O	76.7 µM
CCCCCCCCCCCC1N=C(N)NC(CCCO)=C1C(=O)OC (centres undefined)	3.79 µM
CN(N)/N=N/c1nc[nH]c1C(N)=O	> 27 µM
C1=NCCOCCN=Cc2ccccc2OCc2cccc(n2)COc2ccccc21	> 25 µM
COc1cc(/C=C(/c2ccccc2)[N+](=O)[O-])c(OC)c2c1OCO2	> 100 µM
CC1=CC(=O)C(C(C)=Nc2ccccc2Cl)C(=O)O1 (centres undefined)	> 100 µM
N#Cc1ccc(OCc2ccc3nc(-c4ccccc4)c(Cl)nc3c2)cc1	> 100 µM
CC(C)N1CSC(=S)N(Cc2ccccc2)C1	> 10 µM
